Where do the numbers come from? From patent US20210355194A1.

Listing of recorded pKd by entry.
- Study Target: CV S-protein construct 6 trimer TP31001F (SARS-CoV-2, UniProt P0DTC2 14-1208)
- Assay Remarks: SPR
For clarity, pKd is expressed as the negative log10 of concentration in mol/L.

Binder	Value Type	Reported
variant 6-20 (Fc fusion) VHH: EVQLVESGGGLVQPGGSLRLSCAASGSTLPYHAMGWFRQAPGKEREFVAAITWNGASTSYADSVKGRFTISADNSKNTAYLQMNSLKPEDTAVYYCARDRYYDTSASYFESETWGQGTLVTVSS	pKd	9.52

Proceeding to the next binder to report its pKd.
Look up pKd of variant 5-1 (Fc fusion) VHH: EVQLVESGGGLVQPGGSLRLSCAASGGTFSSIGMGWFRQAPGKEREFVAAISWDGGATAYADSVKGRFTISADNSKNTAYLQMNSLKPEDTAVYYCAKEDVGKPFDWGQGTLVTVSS and report it. 9.40
